- experimentNotes: Lipid nanoparticle size and polydispersity by dynamic light scattering
- Type: physicochemical
- conditionInfo: LNP of lipid/DSPC/cholesterol/PEG-lipid 50:10:38.5:1.5 encapsulating hEPO mRNA
measuredMetric: polydispersity

Can you share its polydispersity? I mean this compound: `CCCCCCCCC(CCCCCCCC)CC(=O)NCCCCCN(CCN(CCO)CCCCCOC(=O)CC(CCCCCCCC)CCCCCCCC)C1CCCCCC1`
0.05

Can you share its polydispersity? I mean this compound: CCCCCCCCC(CCCCCC)CNC(=O)CCCCCN(CCO)CCN(CCCCC(COC(=O)CCCCCCC)COC(=O)CCCCCCC)C1CC1 (stereo not shown)
0.071

Can you share its polydispersity? I mean this compound: CCCCCCCCCCCOC(=O)CCCCCN(CCN(CCO)CCCCCC(=O)OCC(CCCCCC)CCCCCCCC)C1CCC1 (stereo not shown)
0.076

Can you share its polydispersity? I mean this compound: `CCCCCCCCC(CCCCCCCC)CNC(=O)CCCCCN(CCO)CCN(CCCCCC(=O)NCC(CCCCCCCC)CCCCCCCC)C1CCCC1`
0.062

* * *

- experimentNotes: Encapsulation efficiency of lipid nanoparticles, Quant-it Ribogreen RNA assay
- Type: physicochemical
- conditionInfo: LNP of lipid/DSPC/cholesterol/PEG-lipid 50:10:38.5:1.5 encapsulating hEPO mRNA
measuredMetric: Encapsulation Efficiency (%)
The response must be a number in % with no trailing unit.

Can you share its Encapsulation Efficiency? I mean this compound: CCCCCCCCC(CCCCCC)CNC(=O)CCCCCN(CCO)CCN(CCCCC(COC(=O)CCCCCCC)COC(=O)CCCCCCC)C1CCCCC1 (stereo not shown)
89.74

Can you share its Encapsulation Efficiency? I mean this compound: `CCCCCCCCC(CCCCCCCC)CC(=O)NCCCCCN(CCN(CCO)CCCCCOC(=O)CC(CCCCCCCC)CCCCCCCC)C1CCCCC1`
92.38

Can you share its Encapsulation Efficiency? I mean this compound: `CCCCCCCCCCCOC(=O)CCCCCN(CCN(CCO)CCCCCCCC(=O)OCC(CCCCCCCC)CCCCCCCC)C1CCCCC1`
92.1

Can you share its Encapsulation Efficiency? I mean this compound: CCCCCCCCC(CCCCCC)CNC(=O)CCCCCN(CCO)CCN(CCCCC(COC(=O)CCCCCCC)COC(=O)CCCCCCC)C1CCCCCC1 (stereo not shown)
90.39

Can you share its Encapsulation Efficiency? I mean this compound: `CCCCCCCCCCCCCCN(CCCCCCCCCCCCCC)C(=O)CCCCCN(CCO)CCN(CCCCCC(=O)OCCCCCCCCCCC)C1CCCCC1`
89.05

Can you share its Encapsulation Efficiency? I mean this compound: `CCCCCCCCCCCOC(=O)CCCCCN(CCN(CCO)CCOCCC(=O)OCC(CCCCCCCC)CCCCCCCC)C1CCCCC1`
90.22

Can you share its Encapsulation Efficiency? I mean this compound: `CCCCCCCCCCCOC(=O)CCCCCN1CCC(N(CCO)CCCCCC(=O)OCC(CCCCCCCC)CCCCCCCC)CC1`
95.29

* * *

The following compounds are shown together with reported Encapsulation Efficiency values.
- experimentNotes: Encapsulation efficiency of lipid nanoparticles, Quant-it Ribogreen RNA assay
- Format: physicochemical
- conditionInfo: LNP of lipid/DSPC/cholesterol/PEG-lipid 50:10:38.5:1.5 encapsulating hEPO mRNA
The response must be a number in % with no trailing unit.

A selection of reference data follows.
Can you share its Encapsulation Efficiency? I mean this compound: CCCCCCCCCCCC(=O)OCCCCCN(CCN(CCO)CCCCCOC(=O)CC(CCCCCCCC)CCCCCCCC)C1CCCCCCC1 [Compound 95]
92.04

Can you share its Encapsulation Efficiency? I mean this compound: CCCCCCCCC(CCCCCC)CNC(=O)CCCCCN(CC=C(C)C)CCN(CCO)CCCCC1COC(C(CCCCCC)CCCCCCCC)OC1 (stereo not shown) [Compound 150]
91.34

Can you share its Encapsulation Efficiency? I mean this compound: CCCCCCCCC(CCCCCCCC)COC(=O)CCCCCN(CC)CCN(CCO)CCCCCC(=O)OCC(CCCCCCCC)CCCCCCCC [Compound 27]
95.20

Can you share its Encapsulation Efficiency? I mean this compound: CCCCCCCCC(CCCCCC)COC(=O)CCCCCN(CCCCN(CCO)CCCCC(COC(=O)CCCCCCC)COC(=O)CCCCCCC)C1CC1 (stereo not shown) [Compound 190]
88.81

More entries:
Can you share its Encapsulation Efficiency? I mean this compound: CCCCCCCCC(CCCCCCCC)CC(=O)OCCCCCN(CCO)CCN(CCCCCOC(=O)CC(CCCCCCCC)CCCCCCCC)C1CCC1 [Compound 62]
92.0

Can you share its Encapsulation Efficiency? I mean this compound: CCCCCCCCCCCC(=O)NCCCCCN(CCN(CCO)CCCCCNC(=O)CC(CCCCCCCC)CCCCCCCC)C1CCCCC1 [Compound 58]
97.7

Can you share its Encapsulation Efficiency? I mean this compound: CCCCCCCCCCCCCCCCOC(=O)CCCCCN(CCN(CCO)CCCCCC(=O)OCC(CCCCCCCC)CCCCCCCC)C1CCCCC1 [Compound 104]
92.43
